- study_system: T1, ARHGEF11, O15085
- T1 sequence (O15085 42-136, limits assumed, looked up): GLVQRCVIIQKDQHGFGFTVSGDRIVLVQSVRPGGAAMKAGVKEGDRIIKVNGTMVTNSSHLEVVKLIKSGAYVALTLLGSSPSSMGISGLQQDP
- measurement_protocol: holdup assay
- Parameters: key: below the threshold = too weak to quantify, mostly under pKd 3.1 to 4
- experimental_setup: plain residues with an end cap or a label only (N-terminal biotin on a linker: ado-ado)

# binder, pKd
measured = [
    ("SAKVRTVTSV [RASL11B, Q9BPW5]", 4.45),
    ("SGSLKLMTTV [DACT1, Q9NYF0]", 4.71),
    ("QGPVETESVV [SLC45A4, Q5BKX6]", 3.99),
    ("LGRSTPQSEV [DGKH, Q86XP1]", 4.15),
    ("YNNCLEILRV [DCAF7, P61962]", 3.78),
    ("VRNLPESEEL [MYOZ3, Q8TDC0]", 3.83),
    ("QHKTQLQTLI [BPIFA2, Q96DR5]", 3.7),
    ("FNSYSLTGYV [CLDN2, P57739]", 3.94),
]
